Target: Serine/threonine-protein kinase ICK (Homo sapiens); also: in the data inactive means no Kd found up to 30 µM
Sequence (Q9UPZ9 whole entry): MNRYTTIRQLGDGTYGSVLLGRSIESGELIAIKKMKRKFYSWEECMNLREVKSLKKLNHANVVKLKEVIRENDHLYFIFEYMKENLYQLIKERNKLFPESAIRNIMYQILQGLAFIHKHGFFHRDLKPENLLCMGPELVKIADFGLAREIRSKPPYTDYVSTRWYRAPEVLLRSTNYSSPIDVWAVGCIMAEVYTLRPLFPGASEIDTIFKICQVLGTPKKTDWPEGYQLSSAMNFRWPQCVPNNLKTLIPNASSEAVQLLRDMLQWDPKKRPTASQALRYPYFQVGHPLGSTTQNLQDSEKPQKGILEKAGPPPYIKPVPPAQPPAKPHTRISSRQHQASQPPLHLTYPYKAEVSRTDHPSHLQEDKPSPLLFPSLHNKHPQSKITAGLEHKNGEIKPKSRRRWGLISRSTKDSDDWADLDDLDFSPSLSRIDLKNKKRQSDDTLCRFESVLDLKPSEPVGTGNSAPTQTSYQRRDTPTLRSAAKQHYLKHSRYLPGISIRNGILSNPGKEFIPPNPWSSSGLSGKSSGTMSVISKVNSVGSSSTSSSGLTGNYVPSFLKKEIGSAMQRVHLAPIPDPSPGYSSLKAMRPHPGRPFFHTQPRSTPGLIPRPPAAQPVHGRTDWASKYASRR
Calls of active or inactive are those of the source.
I would appreciate it if you answered using one of these outcomes: true for active, false for inactive

Please review the following examples before continuing.
Structure As Smiles	Classification
O=C(O)c1ccc2c(c1)nc(Nc1cccc(Cl)c1)c1ccncc12	true
Cc1cc(Nc2nc(N[C@@H](C)c3ncc(F)cn3)ncc2Cl)n[nH]1	false
Cc1ccc(C(=O)Nc2ccc(Oc3cc4cnn(C)c4cc3-c3cn[nH]c3)c(F)c2)c(=O)n1-c1ccc(F)cc1	false

Recorded call for C=CCn1c(=O)c2cnc(Nc3ccc(N4CCN(C)CC4)cc3)nc2n1-c1cccc(C(C)(C)O)n1 ? false

I'd appreciate the recorded outcome for COc1cccc(Nc2ncnn3ccc(CN4CC[C@@H](N)[C@H](O)C4)c23)c1 from this test. false

// outcome(item) with item = CCN(CCCOc1ccc2c(Nc3cc(CC(=O)Nc4cccc(F)c4)n[nH]3)ncnc2c1)CCOP(=O)(O)O false

Please state the recorded outcome for this molecule: Cc1cc(C(=O)Nc2cc(Oc3ccc4nc(NC(=O)C5CC5)cn4n3)ccc2C)n(C)n1 false

Write down the call the test reported for this molecule. Item: CC[C@@](C)(Nc1ccnc(-c2c[nH]c3ncccc23)n1)C(=O)NCC(F)(F)F false

Per the records of this test, what outcome belongs to CNC(=O)c1ccc(Nc2ncc(C(F)(F)F)c(NCc3nccnc3N(C)S(C)(=O)=O)n2)cc1 ? false

---

Molecular target: MAP/microtubule affinity-regulating kinase 3 (Homo sapiens); also: in the data inactive means no Kd found up to 30 µM
Sequence (P27448 whole entry): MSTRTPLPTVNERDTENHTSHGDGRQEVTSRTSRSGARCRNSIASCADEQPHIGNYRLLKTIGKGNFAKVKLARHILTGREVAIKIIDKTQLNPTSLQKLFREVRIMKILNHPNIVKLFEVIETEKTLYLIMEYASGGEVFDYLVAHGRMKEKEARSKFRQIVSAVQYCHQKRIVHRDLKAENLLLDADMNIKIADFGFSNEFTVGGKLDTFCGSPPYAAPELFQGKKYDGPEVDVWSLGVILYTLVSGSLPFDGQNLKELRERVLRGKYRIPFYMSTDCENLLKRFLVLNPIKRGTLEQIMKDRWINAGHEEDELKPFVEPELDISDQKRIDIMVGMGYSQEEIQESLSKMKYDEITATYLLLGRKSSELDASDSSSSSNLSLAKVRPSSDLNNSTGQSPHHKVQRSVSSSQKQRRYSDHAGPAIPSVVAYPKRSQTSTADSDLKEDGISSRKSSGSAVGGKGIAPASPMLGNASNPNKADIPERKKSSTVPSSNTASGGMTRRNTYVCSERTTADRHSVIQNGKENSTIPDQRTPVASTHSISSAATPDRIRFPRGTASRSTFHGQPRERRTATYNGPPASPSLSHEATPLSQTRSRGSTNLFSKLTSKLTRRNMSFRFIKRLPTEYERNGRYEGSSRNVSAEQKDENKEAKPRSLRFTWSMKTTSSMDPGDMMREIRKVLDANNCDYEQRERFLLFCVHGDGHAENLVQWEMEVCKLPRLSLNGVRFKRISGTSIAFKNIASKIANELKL
Calls of active or inactive are those of the source.
Permitted responses: active, inactive

Take a look at these entries with their results.
Compound	Classification
Cc1cc(Nc2nc(N[C@@H](C)c3ncc(F)cn3)ncc2Cl)n[nH]1	inactive
S=C(NCc1ccc2c(c1)OCO2)N1CCN(c2ncnc3c2oc2ccccc23)CC1	inactive
CCOc1ccn(-c2ccc(F)cc2)c(=O)c1C(=O)Nc1ccc(Oc2ccnc(N)c2Cl)c(F)c1	inactive
COc1cc(F)c(F)c(Nc2ccc(I)cc2F)c1NS(=O)(=O)C1(C[C@H](O)CO)CC1	inactive
CNC(=O)c1ccc(Nc2ncc(C(F)(F)F)c(NCc3nccnc3N(C)S(C)(=O)=O)n2)cc1	active

// return assay outcome for C=CCn1c(=O)c2cnc(Nc3ccc(N4CCN(C)CC4)cc3)nc2n1-c1cccc(C(C)(C)O)n1 inactive

Record lookup: outcome of this test for O=C(NOC[C@H](O)CO)c1ccc(F)c(F)c1Nc1ccc(I)cc1F ? inactive

Tell me the recorded outcome of this test for NC(=O)c1ccc(N(C(N)=O)c2c(F)cccc2F)nc1-c1ccc(F)cc1F . inactive

Can you look up the reported call for CNC(=O)c1cc(COc2nnc(Nc3ccc(Cl)cc3)c3ccoc23)ccn1 for me? inactive

Just curious, what result did O=C(Nc1ccc(OC(F)(F)F)cc1)c1sccc1NCc1ccnc2ccccc12 get here? inactive

---

Target: Calcium/calmodulin-dependent protein kinase type II subunit delta (Homo sapiens, UniProt Q13557); also: in the data inactive means no Kd found up to 30 µM
Sequence (Q13557 whole entry): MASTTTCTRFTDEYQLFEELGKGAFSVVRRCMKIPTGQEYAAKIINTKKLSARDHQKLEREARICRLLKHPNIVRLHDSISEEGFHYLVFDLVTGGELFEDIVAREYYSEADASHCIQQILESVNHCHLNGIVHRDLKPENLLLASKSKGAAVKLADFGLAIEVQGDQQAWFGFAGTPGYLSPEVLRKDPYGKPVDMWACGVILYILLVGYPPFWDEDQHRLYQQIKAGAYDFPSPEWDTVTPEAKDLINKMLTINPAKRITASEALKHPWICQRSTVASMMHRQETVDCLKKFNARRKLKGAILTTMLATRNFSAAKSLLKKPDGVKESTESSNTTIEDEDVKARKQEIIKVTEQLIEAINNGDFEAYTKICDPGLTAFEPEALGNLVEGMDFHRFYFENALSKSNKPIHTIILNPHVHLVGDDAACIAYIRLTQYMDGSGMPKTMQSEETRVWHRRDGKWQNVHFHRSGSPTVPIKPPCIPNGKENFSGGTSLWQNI
Activity calls are given as the source filed them.
Allowed answers: T = active, F = inactive

Structure As Smiles	Classification
COCCN1CCN(Cc2ccc(-c3n[nH]c4c3C(=O)c3c(NC(=O)NN5CCOCC5)cccc3-4)cc2)CC1	F
C=CCn1c(=O)c2cnc(Nc3ccc(N4CCN(C)CC4)cc3)nc2n1-c1cccc(C(C)(C)O)n1	F
C=CCN(/C=C1/C(=O)O[C@H](COC)[C@@]2(C)C1=C(O)C(=O)C1=C2[C@H](OC(C)=O)C[C@]2(C)C(=O)CC[C@@H]12)CC=C	F

For the next question, use this molecule.
Look up the recorded call for CC1(COc2ccc3c(c2)ncn3-c2ccc3cccc(N4CCC(N)CC4)c3n2)COC1 in this test. T
